Experiment: Viability qHTS for spleen associated tyrosine kinase inhibitor (SYKi) drug resistant MV4-11 cells (AID 1963824); also: nearly all actives have a fitted effect of over 35% in size
Details: SYKi-resistant MV4-11 viability, CellTiter-Glo, 72 h; series mostly up to 45 µM
Results filed as inconclusive are left out. The source made the active and inactive calls. Calls follow the shape of the dose curve; as a rule, active = well fitted cell-killing curve with a large enough effect; inconclusive = small, poorly fitted or top-dose-only effect, or effect the other way; inactive = no such curve, though single readings can be large or run the other way.
Thanks in advance; please answer with one of these: True = active, False = inactive

C/C=C(/C)C(=O)OC1C=C2C3C(C)C(C)C(OC(=O)C(C)C(C)O)CC3(C)CCC2(C)C2(C)CC(OC(C)=O)C3C(C)(C)C(O)C(=O)CC3(C)C12 (stereo not drawn)
True
C/C(=N/NC(=O)c1ccncc1)C(=O)O
False
Cc1cc(C)cc(Oc2ccc(CNC(=O)[C@H](C)N)cc2C)c1
True
C=C1C(=C/C=C2\CCC[C@]3(C)[C@@H]([C@H](C)/C=C/[C@@H](O)C4CC4)CC[C@@H]23)C[C@@H](O)C[C@@H]1O
True
CC(=O)Oc1ccccc1C(=O)O
False

Dear colleague, could you share the recorded outcome for `C/C=C1\[C@H](O[C@@H]2O[C@H](CO)[C@@H](O)[C@H](O)[C@H]2O)OC=C2C(=O)OCCc3ccc(O)c(c3)Oc3ccc(cc3)CCOC(=O)C[C@H]21` when you have a moment?
True

Dear colleague, could you share the recorded outcome for `O=C(c1ccc(Nc2nc(C3CC3)cn3c(-c4cn[nH]c4)cnc23)c(F)c1)N1CCOCC1` when you have a moment?
True

Dear colleague, could you share the recorded outcome for CCNc1cc(NC2CCC(O)CC2)nc(Nc2ccc3c(ccn3Cc3ccccc3)c2)n1 (stereo not drawn) when you have a moment?
True

* * *

Assay: Cellular viability qHTS for adrenocortical cancer (ACC) cell line NCI-H295R (AID 1963990); also: nearly all actives have a fitted effect of over 60% in size
Conditions: CellTiter-Glo ATP luminescence, 48 h; series mostly up to 46.1 µM
Results filed as inconclusive are left out. The source made the active and inactive calls. The call rests on the fitted dose curve; in most records, active means well fitted cell-killing curve with a large enough effect; inconclusive means small, poorly fitted or top-dose-only effect; inactive means flat fitted curve, though single readings scatter.
Thanks in advance; please answer with one of these: active, inactive

Dear colleague, could you share the recorded outcome for CN1Cc2cc(C(=O)N3CCC(C4CCNCC4)CC3)ccc2NC(CC(=O)O)C1=O (centres undefined) when you have a moment?
inactive

Dear colleague, could you share the recorded outcome for O=C1OC(CN2CCOCC2)CN1/N=C/c1ccc([N+](=O)[O-])o1 (centres undefined) when you have a moment?
active

Dear colleague, could you share the recorded outcome for `N#C[C@H]1C[C@H]2C[C@@H]2N1C(=O)[C@@H](N)C12CC3CC(CC(O)(C3)C1)C2` when you have a moment?
inactive

Dear colleague, could you share the recorded outcome for CC(COc1ccccc1)NN (centres undefined) when you have a moment?
inactive

Dear colleague, could you share the recorded outcome for `Cc1cccc(-c2nn(C(=S)Nc3ccccc3)cc2-c2ccnc3ccccc23)n1` when you have a moment?
inactive

Dear colleague, could you share the recorded outcome for `CCOC(=O)c1cnc2c(cnn2CC)c1NN=C(C)C` when you have a moment?
inactive

Dear colleague, could you share the recorded outcome for CCNC(=O)CCC/C=C\C[C@@H]1[C@@H](/C=C/C(O)CCc2ccccc2)[C@@H](O)C[C@@H]1O (some centres undefined) when you have a moment?
inactive

Dear colleague, could you share the recorded outcome for `Cc1ccc(S(=O)(=O)NC(=O)NC2CCCCCCC2)cc1` when you have a moment?
inactive

* * *

Assay: Viability qHTS for spleen associated tyrosine kinase inhibitor (SYKi) naive MV4-11 cells (AID 1963823); also: nearly all actives have a fitted effect of over 40% in size
Conditions: MV4-11 AML viability, CellTiter-Glo luminescence, 72 h; series mostly up to 45 µM
Results filed as inconclusive are left out. Active and inactive are the calls of the source. Calls come from the whole dose curve; as a rule, active = well fitted cell-killing curve with a large enough effect; inconclusive = small, poorly fitted or top-dose-only effect, or effect the other way; inactive = no such curve, though single readings can be large or run the other way.
The following compounds are listed with their measured viability (% of control) values.

Examples with their reported viability (% of control) follow.
CC1(C)CC[C@]2(C(=O)O[C@@H]3O[C@H](CO)[C@@H](O)[C@H](O)[C@H]3O)CC[C@]3(C)C(=CCC4[C@@]5(C)C[C@H](O)[C@H](O[C@@H]6OC[C@@H](O)[C@H](O)[C@H]6O)[C@@](C)(CO)C5CC[C@]43C)C2C1 (some centres undefined)
96.5% [at 9.25 µM] (inactive)
CC(=O)OC1C(CO)OC(O[C@H]2[C@H](OC(=O)[C@]34CCC(C)(C)C[C@H]3C3=CCC5[C@@]6(C)CC[C@H](O[C@@H]7O[C@H](C(=O)O)[C@@H](O)[C@H](O[C@@H]8OC[C@@H](O)[C@H](O)[C@H]8O)[C@H]7O[C@@H]7O[C@H](CO)[C@H](O)[C@H](O)[C@H]7O)[C@@](C)(C=O)C6CC[C@@]5(C)[C@]3(C)C[C@H]4O)O[C@H](C)[C@H](OC3OC(C)C(OC4OCC(O)C(O)C4O)C(O)C3O)[C@@H]2O)C(O)C1O (some centres undefined)
87.3% [at 9.25 µM] (inactive)
CC1OC(OC2C(C)OC(OC3C(OC(=O)/C=C/c4ccc(O)cc4)C(CO)OC(OC4(COC(=O)/C=C/c5ccc(O)cc5)OC(CO)C(O)C4O)C3OC3OCC(O)(CO)C3O)C(O)C2O)C(O)C(O)C1O (centres undefined)
86.5% [at 9.25 µM] (inactive)

Fill in: viability (% of control) of COC(=O)[C@@]1(C)CC[C@]2(C(=O)O[C@@H]3O[C@H](CO)[C@@H](O)[C@H](O)[C@H]3O)CC[C@]3(C)C(=CCC4[C@@]5(C)CC[C@H](O[C@@H]6O[C@H](C(=O)O)[C@@H](O)[C@H](O)[C@H]6O)C(C)(C)C5CC[C@]43C)[C@@H]2C1 (some centres undefined) is ___
68.6% [at 9.25 µM] (inactive)
